method: DRUGMATRIX: Leukotriene, BLT (LTB4) radioligand binding (ligand: [3H]LTB4)
Assay type: cell membranes, Membrane
measurement_conditions: u-937; Not Active = under 50% inhibition at 10 µM
measured_metric: IC50

Some solved cases for reference:
Entry under review: O=c1cnn([C@@H]2O[C@H](CO)[C@@H](O)[C@H]2O)c(=O)[nH]1 . Reported IC50?
Not Active

How about this compound: COc1ccc2c3c1O[C@H]1C[C@@H](O)C=C[C@@]31CCN(C)C2
Not Active

How about this compound: COC(=O)Nc1nc2ccc([S+]([O-])c3ccccc3)cc2[nH]1 (configuration not stated)
Not Active

How about this compound: C[C@@H]1C[C@H]2[C@@H]3CCC4=CC(=O)C=C[C@]4(C)[C@@]3(F)[C@@H](O)C[C@]2(C)[C@H]1C(=O)CO
Not Active

How about this compound: C[C@@H]1O[C@@H](O[C@@H]2C=C3CC[C@@H]4[C@H](CC[C@]5(C)[C@@H](c6ccc(=O)oc6)CC[C@]45O)[C@@]3(C)CC2)[C@H](O)[C@H](O)[C@H]1O
Not Active

More entries:
Entry under review: CC(C(=O)O)c1cccc(Oc2ccccc2)c1 (configuration not stated) . Reported IC50?
Not Active

How about this compound: C=CCc1ccc(O)c(OC)c1
Not Active

How about this compound: CCCCNc1ccc(C(=O)OCCN(C)C)cc1
Not Active

How about this compound: C[n+]1ccc(-c2cc[n+](C)cc2)cc1.[Cl-].[Cl-] [PARAQUAT DICHLORIDE]
Not Active

How about this compound: O=C(O)c1cccnc1Nc1cccc(C(F)(F)F)c1
Not Active

How about this compound: Nc1ccn([C@@H]2O[C@H](CO)[C@@H](O)[C@@H]2O)c(=O)n1
Not Active

How about this compound: CN(C)[C@@H]1C(O)=C(C(N)=O)C(=O)[C@@]2(O)C(O)=C3C(=O)c4c(O)ccc(Cl)c4[C@@](C)(O)[C@H]3C[C@@H]12
Not Active

How about this compound: Cn1c(=O)c2c(ncn2CC(O)CO)n(C)c1=O (configuration not stated)
Not Active

How about this compound: Cc1cccc(C)c1OCC(C)N (configuration not stated)
Not Active

How about this compound: Cc1c(OCC(F)(F)F)ccnc1C[S+]([O-])c1nc2ccccc2[nH]1 (configuration not stated)
Not Active

How about this compound: Cn1c(=O)c2[nH]cnc2n(C)c1=O.Cn1c(=O)c2[nH]cnc2n(C)c1=O.NCCN
Not Active

How about this compound: COc1ccc(C(=O)N2CCCC2=O)cc1
Not Active
